Target: truncated human PLK1 (kinase domain) (Homo sapiens, UniProt P53350)
Construct: made in house; host or cells: baculovirus-infected T. ni insect cells
Sequence (P53350 21-346): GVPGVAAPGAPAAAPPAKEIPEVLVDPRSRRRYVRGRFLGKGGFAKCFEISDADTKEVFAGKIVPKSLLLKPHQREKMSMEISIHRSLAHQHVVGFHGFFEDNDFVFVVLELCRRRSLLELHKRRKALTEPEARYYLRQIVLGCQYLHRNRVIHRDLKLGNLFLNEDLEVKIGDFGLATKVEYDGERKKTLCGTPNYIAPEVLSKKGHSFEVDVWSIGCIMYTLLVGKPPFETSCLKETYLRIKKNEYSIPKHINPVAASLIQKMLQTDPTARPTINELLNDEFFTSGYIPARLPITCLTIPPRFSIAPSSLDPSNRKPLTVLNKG
Test: Assay for Inhibition of PLK1 (33P SPA enzyme activity)
Assay type: biochemical
Conditions: 1 μM ATP, 2 nM enzyme; read-out: Ave pIC50 PLK Enzyme Inhibition (converted)
IC50 overview

Cc1nc(-c2cccc(C(F)(F)F)c2)n2nc(Nc3cccc(S(N)(=O)=O)c3)ncc12 [Example 41] :: 0.1 to 10 µM
COc1cc(Nc2ncc3c(C)nc(-c4cccc(/C=C/C(N)=O)c4)n3n2)cc(OC)c1OC [Example 17] :: < 0.1 µM
COc1cc(Nc2ncc3c(C)nc(-c4cccc(-c5ccccc5C(F)(F)F)c4)n3n2)cc(OC)c1OC [Example 61] :: 0.1 to 10 µM
COc1ccc(Nc2ncc3c(C)nc(-c4ccoc4)n3n2)cc1 [Example 80] :: 0.1 to 10 µM
COc1ccccc1-c1nc(C)c2cnc(Nc3cc(OC)c(OC)c(OC)c3)nn12 [Example 21] :: 0.1 to 10 µM

Please fill in: IC50 reported for COc1ccc(Nc2ncc3c(C)nc(-c4ccco4)n3n2)cc1 [Example 81] = 0.1 to 10 µM

Please fill in: IC50 reported for COc1cc(Nc2ncc3c(C)nc(C4CCCCC4)n3n2)cc(OC)c1OC [Example 90] = 0.1 to 10 µM

###

IC50 overview
Target: truncated human PLK1 (kinase domain) (Homo sapiens, UniProt P53350)
Construct: made in house; host or cells: baculovirus-infected T. ni insect cells
Experiment: Assay for Inhibition of PLK1 (33P SPA enzyme activity)
Format: biochemical
Conditions: 1 μM ATP, 2 nM enzyme; read-out: Ave pIC50 PLK Enzyme Inhibition (converted)

COc1ccc(Nc2ncc3c(C)nc(C4CC4)n3n2)cc1 [Example 84] :: 0.1 to 10 µM
Cc1nc(-c2cccc(C(F)(F)F)c2)n2nc(Nc3cccc(CNC(=O)OC(C)(C)C)c3)ncc12 [Example 48] :: 0.1 to 10 µM
CSc1ccc(Nc2ncc3c(C)nc(-c4ccccc4)n3n2)cc1 [Example 95] :: 0.1 to 10 µM
Cc1nc(-c2cccc(C(F)(F)F)c2)n2nc(Nc3cccc(CCO)c3)ncc12 [Example 44] :: < 0.1 µM

Query compound follows.
Please fill in: IC50 reported for Cc1nc(-c2ccccc2)n2nc(Nc3ccc(S(N)(=O)=O)cc3)ncc12 [Example 20] = 0.1 to 10 µM

###

Biological target: truncated human PLK1 (kinase domain) (Homo sapiens, UniProt P53350)
Construct: made in house; host or cells: baculovirus-infected T. ni insect cells
Assay: Assay for Inhibition of PLK1 (33P SPA enzyme activity)
Type: biochemical
Conditions: 1 μM ATP, 2 nM enzyme; read-out: Ave pIC50 PLK Enzyme Inhibition (converted)
assay_readout: IC50

Study these solved cases before continuing.
Cc1nc(-c2cccc(C(F)(F)F)c2)n2nc(Nc3ccc(O)cc3)ncc12 :: < 0.1 µM
COc1cc(Nc2ncc3c(C)nc(-c4ccoc4)n3n2)cc(OC)c1OC :: 0.1 to 10 µM
COC(=O)c1ccc(-c2nc(C)c3cnc(Nc4cc(OC)c(OC)c(OC)c4)nn23)cc1 :: 0.1 to 10 µM
COc1ccc(F)cc1Nc1ncc2c(C)nc(-c3cccc(C(F)(F)F)c3)n2n1 :: 0.1 to 10 µM
COc1cc(Nc2ncc3c(C)nc(-c4cccn4C)n3n2)cc(OC)c1OC :: 0.1 to 10 µM

Sample Cc1nc(-c2ccccc2)n2nc(Nc3ccccc3)ncc12 , system: truncated human PLK1 (kinase domain) (Homo sapiens, UniProt P53350). Its IC50 is 0.1 to 10 µM

Sample CCS(=O)(=O)c1ccc(OC)c(Nc2cccc(-c3nc(C)c4cnc(Nc5cc(OC)c(OC)c(OC)c5)nn34)c2)c1 , system: truncated human PLK1 (kinase domain) (Homo sapiens, UniProt P53350). Its IC50 is > 10 µM

###

Test system: MDA435
Assay: cells
Settings: MDA435, 72 h, read-out: MeB Cell Line IC50
assay_readout: IC50

Please fill in: IC50 reported for COc1cc(Nc2ncc3c(C)nc(-c4ccccc4)n3n2)cc(OC)c1OC [Example 1] = 1 to 10 µM

###

Target: truncated human PLK1 (kinase domain) (Homo sapiens)
Construct: made in house; host or cells: baculovirus-infected T. ni insect cells
Test: Assay for Inhibition of PLK1 (33P SPA enzyme activity)
Format: biochemical
Conditions: 1 μM ATP, 2 nM enzyme; read-out: Ave pIC50 PLK Enzyme Inhibition (converted)
IC50 overview

COc1ccc(Nc2ncc3c(C)nc(C4CCCCC4)n3n2)cc1 :: 0.1 to 10 µM
COc1ccc(Nc2ncc3c(C)nc(-c4ccccc4F)n3n2)cc1 :: 0.1 to 10 µM

Please fill in: IC50 reported for COc1ccc(Nc2ncc3c(C)nc(-c4cccs4)n3n2)cc1 = 0.1 to 10 µM

Please fill in: IC50 reported for COc1cc(Nc2ncc3c(C)nc(-c4ccccc4NC(=O)C(C)(C)C)n3n2)cc(OC)c1OC = > 10 µM

Please fill in: IC50 reported for COc1ccc(Nc2ncc3c(C)nc(Cc4ccccc4)n3n2)cc1 = 0.1 to 10 µM

Please fill in: IC50 reported for COc1ccc(Nc2ncc3c(C)nc(-c4cccc(OC)c4)n3n2)cc1 = 0.1 to 10 µM

###

IC50 overview
Target: truncated human PLK1 (kinase domain) (Homo sapiens, UniProt P53350)
Construct: made in house; host or cells: baculovirus-infected T. ni insect cells
Test: Assay for Inhibition of PLK1 (33P SPA enzyme activity)
Assay type: biochemical
Settings: 1 μM ATP, 2 nM enzyme; read-out: Ave pIC50 PLK Enzyme Inhibition (converted)

Study these solved cases before continuing.
COc1cc(Nc2ncc3c(C)nc(-c4ccccc4Sc4ccccc4C#N)n3n2)cc(OC)c1OC :: 100 to 10000 nM
COc1cc(Nc2ncc3c(C)nc(-c4cccc(N)c4)n3n2)cc(OC)c1OC :: < 100 nM
COc1ccc(Nc2ncc3c(C)nc(-c4ccccc4OC)n3n2)cc1 :: 100 to 10000 nM
Cc1nc(-c2ccccc2)n2nc(Nc3ccc(OCCN4CCOCC4)cc3)ncc12 :: 100 to 10000 nM

Query compound follows.
Please fill in: IC50 reported for COc1ccc(Nc2ncc3c(C)nc(-c4sccc4Br)n3n2)cc1 = 100 to 10000 nM

###

Tested on: IMR90
Assay: cells
Conditions: Homo sapiens, IMR-90, 72 h, read-out: MeB Cell Line IC50
assay_readout: IC50

Please fill in: IC50 reported for COc1cc(Nc2ncc3c(C)nc(-c4ccccc4)n3n2)cc(OC)c1OC = 10 to 30 µM

###

Target: truncated human PLK1 (kinase domain) (Homo sapiens, UniProt P53350)
Construct: made in house; host or cells: baculovirus-infected T. ni insect cells
Assay: Assay for Inhibition of PLK1 (33P SPA enzyme activity)
Type: biochemical
Details: 1 μM ATP, 2 nM enzyme; read-out: Ave pIC50 PLK Enzyme Inhibition (converted)
Protocol: I. Assay for Inhibition of PLK1 A. Preparation of 6× N-Terminal His-Tagged PLK Kinase Domain All procedures are performed at 4° C. Cells are lysed in 25 mM HEPES, 200 mM NaCl, 25 mM imidazole; pH 8.0. The homogenate is centrifuged at 14K rpm in a SLA-1500 rotor for 40 min and the supernatant filtered through a 1.2 micron filter. […] Fractions containing PLK are determined by SDS-PAGE. […] B. Enzyme Activity±Inhibitors is Determined As Follows: […]
assay_readout: IC50

Study these solved cases before continuing.
COc1ccc(Nc2ncc3c(C)nc(-c4ccsc4)n3n2)cc1 [Example 79] :: 100 to 10000 nM
COc1ccc(Nc2ncc3c(C)nc(-c4ccc(Br)s4)n3n2)cc1 [Example 70] :: 100 to 10000 nM
COc1cc(Nc2ncc3c(C)nc(-c4cccc(Br)c4)n3n2)cc(OC)c1OC [Example 9] :: < 100 nM

Query compound follows.
Please fill in: IC50 reported for COc1cc(Nc2ncc3c(C)nc(-c4cccc(C#N)c4)n3n2)cc(OC)c1OC [Example 8] = < 100 nM

###

Biological target: truncated human PLK1 (kinase domain) (Homo sapiens, UniProt P53350)
Construct: made in house; host or cells: baculovirus-infected T. ni insect cells
Assay: Assay for Inhibition of PLK1 (33P SPA enzyme activity)
Format: biochemical
Conditions: 1 μM ATP, 2 nM enzyme; read-out: Ave pIC50 PLK Enzyme Inhibition (converted)
Experimental: I. Assay for Inhibition of PLK1 A. Preparation of 6× N-Terminal His-Tagged PLK Kinase Domain All procedures are performed at 4° C. Cells are lysed in 25 mM HEPES, 200 mM NaCl, 25 mM imidazole; pH 8.0. The homogenate is centrifuged at 14K rpm in a SLA-1500 rotor for 40 min and the supernatant filtered through a 1.2 micron filter. […] Fractions containing PLK are determined by SDS-PAGE. […] B. Enzyme Activity±Inhibitors is Determined As Follows: […]
IC50 overview

Study these solved cases before continuing.
COc1ccc(Nc2ncc3c(C)nc(-c4ccc(F)cc4)n3n2)cc1 [Example 82] :: 0.1 to 10 µM
COc1ccc(Nc2ncc3c(C)nc(-c4cn(C)c5ccccc45)n3n2)cc1 [Example 76] :: 0.1 to 10 µM
COc1cc(Nc2ncc3c(C)nc(-c4ccccc4Br)n3n2)cc(OC)c1OC [Example 3] :: 0.1 to 10 µM
COc1ccc(Nc2ncc3c(C)nc(C(C)c4ccccc4)n3n2)cc1 (centres unmarked) [Example 77] :: > 10 µM

Please fill in: IC50 reported for Cc1nc(-c2cccc(Br)c2)n2nc(Nc3ccc(N4CCOCC4)c(Cl)c3)ncc12 [Example 15] = 0.1 to 10 µM
